biological target: PD-L1 (UniProt Q9NZQ7 19-238, limits assumed); assay: cell-based or functional assay
Sequence (Q9NZQ7 19-238 limits assumed): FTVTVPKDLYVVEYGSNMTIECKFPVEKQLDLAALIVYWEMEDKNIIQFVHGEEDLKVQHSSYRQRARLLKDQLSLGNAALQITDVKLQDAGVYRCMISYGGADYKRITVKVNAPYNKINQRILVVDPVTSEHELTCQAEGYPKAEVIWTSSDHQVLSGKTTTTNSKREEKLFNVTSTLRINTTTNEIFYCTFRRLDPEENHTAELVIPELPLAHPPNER
assayEndpoint: EC50, CD4+ T细胞增殖 (混合淋巴细胞反应 MLR, cck8) (ng/mL)
Numbers only, in ng/mL.

Example cases with answers are listed next.
{"binder": "AC9-B11 全抗体 (full antibody, human IgG1/kappa) (antibody, V domains shown) VH: EVQLVESGGGLVQPGGSLRLSCAASGCTWSDSWDHWVRQAPGKGLEWVDYESTYGGSTYYADSVKGRFTISADTSKNTAYLQMNSLRAEDTAVYYCARRHWNATFDYWGQGTLVTVSS VL: DIQMTQSPSSLSASVGDRVTITCRASQNIHNSLAWYQQKPGKAPKLLIYGASSLESGVPSRFSGSGSGTDFTLTISSLQPEDFATYYCQQERRVPWTFGQGTKVEIKR", "EC50, CD4+ T细胞增殖 (混合淋巴细胞反应 MLR, cck8) (ng/mL)": 7.58}
{"binder": "AH10-E3 全抗体 (full antibody, human IgG1/kappa) (antibody, V domains shown) VH: EVQLVESGGGLVQPGGSLRLSCAASGWTLSDSLQHWVRQAPGKGLEWVGFQSAYGGSTYYADSVKGRFTISADTSKNTAYLQMNSLRAEDTAVYYCARRHYYTAWDYWGQGTLVTVSS VL: DIQMTQSPSSLSASVGDRVTITCRASQSIHNYLAWYQQKPGKAPKLLIYSASNLPSGVPSRFSGSGSGTDFTLTISSLQPEDFATYYCQQGLHTPPTFGQGTKVEIKR", "EC50, CD4+ T细胞增殖 (混合淋巴细胞反应 MLR, cck8) (ng/mL)": 11.4}
{"binder": "AH10-B11 全抗体 (full antibody, human IgG1/kappa) (antibody, V domains shown) VH: EVQLVESGGGLVQPGGSLRLSCAASGWTLSDSLQHWVRQAPGKGLEWVGFQSAYGGSTYYADSVKGRFTISADTSKNTAYLQMNSLRAEDTAVYYCARRHYYTAWDYWGQGTLVTVSS VL: DIQMTQSPSSLSASVGDRVTITCRASQNIHNSLAWYQQKPGKAPKLLIYGASSLESGVPSRFSGSGSGTDFTLTISSLQPEDFATYYCQQERRVPWTFGQGTKVEIKR", "EC50, CD4+ T细胞增殖 (混合淋巴细胞反应 MLR, cck8) (ng/mL)": 9.88}
{"binder": "AC9-E3 全抗体 (full antibody, human IgG1/kappa) (antibody, V domains shown) VH: EVQLVESGGGLVQPGGSLRLSCAASGCTWSDSWDHWVRQAPGKGLEWVDYESTYGGSTYYADSVKGRFTISADTSKNTAYLQMNSLRAEDTAVYYCARRHWNATFDYWGQGTLVTVSS VL: DIQMTQSPSSLSASVGDRVTITCRASQSIHNYLAWYQQKPGKAPKLLIYSASNLPSGVPSRFSGSGSGTDFTLTISSLQPEDFATYYCQQGLHTPPTFGQGTKVEIKR", "EC50, CD4+ T细胞增殖 (混合淋巴细胞反应 MLR, cck8) (ng/mL)": 11.9}
{"binder": "BH2-E3 全抗体 (full antibody, human IgG1/kappa) (antibody, V domains shown) VH: EVQLVESGGGLVQPGGSLRLSCAASGLTWSDSYKHWVRQAPGKGLEWVHWNSTYGGSTYYADSVKGRFTISADTSKNTAYLQMNSLRAEDTAVYYCARRHFASTWDYWGQGTLVTVSS VL: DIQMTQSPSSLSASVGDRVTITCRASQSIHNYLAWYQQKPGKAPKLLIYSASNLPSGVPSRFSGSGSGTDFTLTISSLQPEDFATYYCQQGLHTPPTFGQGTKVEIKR", "EC50, CD4+ T细胞增殖 (混合淋巴细胞反应 MLR, cck8) (ng/mL)": 7.71}

Next, consider the following binder.
Query block: I am curious: what EC50, CD4+ T细胞增殖 (混合淋巴细胞反应 MLR, cck8) value has been reported for BH2-B11 全抗体 (full antibody, human IgG1/kappa) (antibody, V domains shown) VH: EVQLVESGGGLVQPGGSLRLSCAASGLTWSDSYKHWVRQAPGKGLEWVHWNSTYGGSTYYADSVKGRFTISADTSKNTAYLQMNSLRAEDTAVYYCARRHFASTWDYWGQGTLVTVSS VL: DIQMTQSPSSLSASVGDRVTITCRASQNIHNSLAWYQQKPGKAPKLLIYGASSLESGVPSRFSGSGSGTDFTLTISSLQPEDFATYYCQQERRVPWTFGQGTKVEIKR ?
Result block: 6.73
